Tested on: lymphocytes
Experiment Summary: Vitality of freshly isolated spleen lymphocytes (flow cytometry, propidium iodide / 3,3'-dihexyloxacarbocyanin iodide, 2 days)
Format: cell-based, Swiss mouse
Stated Conditions: Mus musculus, Lymphocyte, read-out: IC50-Value for K22.097, mouse spleen lymphocytes, + 10 mM nicotinamide
Property Label: IC50

>>> result("O=C(CCc1cccnc1)NCCCCC1CCN(C(c2ccccc2)c2ccccc2)CC1")
"> 1000 nM"

---

System: THP-1 cells
Experiment Summary: Growth inhibition of THP-1 human leukaemia cells (WST-1 reagent, four days incubation)
Format: cell-based
Stated Conditions: Homo sapiens, THP-1, THP-1 cells, K22.175 alone; read-out: IC50-Value for K22.175
Property Label: IC50 (nM)

>>> number("O=C(C=Cc1cccnc1)NCCCCC1CCN(C(=O)c2ccccc2)CC1")
0.5
